Origin of measurements: PubChem BioAssay (NCI)

# TGI values compiled below
- Test system: SW-620 colon
- protocol text: NCI tumour cell line growth inhibition, 48 h
assay endpoint: TGI (µM)

compound	unit info	qualifier symbol	result number
O=C(N/N=C(/COc1ccccc1)N=Cc1cccnc1)c1ccncc1	µM	>	100
Cc1cnc2sn(-c3ccc(Br)cc3)c(=O)c2c1	µM	=	89.6
CC1(C)CC2CC(CC(C)(C)C2=O)C1=O	µM	>	100
CCc1ccc2c(c1)C(=O)c1c-2n(CCCN=[N+]=[N-])c(=O)c2cc(OC)c(OC)cc12	µM	>	100
Cc1nn(C)c(COc2ccc(N3CCN(S(=O)(=O)N(C)C)CC3)cc2)c1-c1cccc2c(CCCOc3cccc4ccccc34)c(C(=O)O)n(CCN3CCOCC3)c12	µM	=	15
COc1ccc(C2=CC(c3ccc(OC)cc3Br)N3C=CSC3=N2)cc1 (stereo not given)	µM	=	4.79
Cn1cc(-c2csc(-c3cn(C)c4ccccc34)n2)c2ccccc21	µM	>	100
CNc1ccc(C(=O)CC(O)CCC(C)C2OC(=O)CC(O)CC(=O)CC(O)CC(O)CC(O)CC(O)CC3(O)CC(O)C(C(=O)NCCN4CCOCC4)C(CC(OC4OC(C)C(O)C(N)C4O)/C=C/C=C/C=C/C=C\C=C/C=C/C=C/C2C)O3)cc1 (stereo not given)	µM	>	100
O=[N+]([O-])c1ccc(N2CCC(CCCC3CCN(c4ccc([N+](=O)[O-])cc4[N+](=O)[O-])CC3)CC2)c([N+](=O)[O-])c1	µM	=	57.4
CC(C)NC(=O)OCc1c2c(n(C)c1COC(=O)NC(C)C)-c1ccccc1CC2	µM	=	26

---

- Test system: SNB-75 CNS
- protocol text: NCI tumour cell line growth inhibition, 48 h
assay endpoint: TGI

compound	measurement target	result
O=C(N/N=C(/COc1ccccc1)N=Cc1cccnc1)c1ccncc1	SNB-75 CNS	> 100 µM
COc1cccc(NC(=O)CC(=O)N2N=C(n3ccc4ccccc43)CC2c2ccccc2)c1 (stereo not given)	SNB-75 CNS	> 100 µM
COC(=N)c1c(N)[n+]([O-])c2ccc(F)cc2[n+]1[O-]	SNB-75 CNS	> 100 µM
NC(=O)NC12CC3CC(CC(F)(C3)C1)C2	SNB-75 CNS	> 100 µM
CC1(C)[C@@H]2C[C@H]1c1cnc(-c3ccccn3)cc1C2CCCCC[C@@H]1c2cc(-c3ccccn3)ncc2[C@@H]2C[C@H]1C2(C)C (stereo not given in full)	SNB-75 CNS	> 22.6 µM

---

- Test system: LOX IMVI melanoma
- protocol text: NCI tumour cell line growth inhibition, 48 h

molecule	unit info	qualifier symbol	TGI
C#CC1(O)CCCCCCCCC2(CCCCCCCC1)OCCO2	µM	=	38.1
Cn1cccc1-c1cc(-c2ccc(Br)cc2)[nH]c(=O)c1C#N	µM	>	100
NCCN.O=C([O-])CN1CCOCC1.[OH-].[Pt+4]	µM	>	100
COc1ccccc1C1c2cc3c(cc2OC(N2CCOCC2)C1C)OCO3 (stereo unspecified)	µM	=	35.2
COc1ccc(-c2oc3c(OC)c(OC)cc(O)c3c(=O)c2OC)cc1	µM	>	100
Cc1ccc(C(=O)NC2CCC2)cc1-c1ccc(C(=O)NCC2CC2)cc1	µM	>	25
Cc1ccc(Nc2nc3c(=O)n(C)c(=O)n(C)c3nc2Nc2ccc(C)cc2)cc1	µM	=	22.6
CCOc1cc2c(c(OCC)c1O)CC[C@@H]1[C@@H]2CC[C@]2(C)[C@@H](O)CC[C@@H]12	µM	=	17.1
COc1ccc(C(=O)/C=C/c2cccc(Nc3ccnc4cc(Cl)ccc34)c2)cc1	µM	=	11.7
CCN1CN(c2ccccc2)C2(CCN(CC(CC3OCCO3)c3ccc(F)cc3)CC2)C1=O (stereo unspecified)	µM	=	35.1
O=[N+]([O-])c1ccc(N2CCC(CCCC3CCN(c4ccc([N+](=O)[O-])cc4[N+](=O)[O-])CC3)CC2)c([N+](=O)[O-])c1	µM	=	30.2
COC(=O)/C=C1/OC(c2ccc(OC)cc2)=C(Cl)C1=O	µM	=	21.2
Cc1[nH]c(=O)nc(NNCc2ccc(Cl)cc2)c1C(=O)Nc1ccc(Cl)cc1	µM	>	100
COC(=O)C(CC1=C(O)Nc2ccccc2N1)/C(=N/NC(N)=O)C(=O)Nc1ccccc1C (stereo unspecified)	µM	=	35
O=C(Nc1ccc(Oc2cccc(F)c2)c(Cl)c1)c1cnccn1	µM	>	50
CC(=O)OC(C)(C)CCC(=O)[C@](C)(O)[C@H]1[C@H](O)C[C@@]2(C)[C@@H]3CCc4c(cc(OC5OC(CO)C(O)C(O)C5O)c(O)c4C)C3(C)C(=O)C[C@]12C (stereo partly specified)	µM	>	100

---

- Tested on: SN12C renal
- protocol text: NCI tumour cell line growth inhibition, 48 h
Where a SMILES comes first, the peptide text is derived from it. [ ]: non-standard residue; d: D form.
assay endpoint: TGI

compound	assay endpoint	result
COc1ccc(-c2c(C#N)c(S)n(NS(=O)(=O)c3ccccc3)c(=O)c2C#N)cc1	TGI	> 100 µM
COc1cc2c(cc1OC)[C@@H](Nc1ccc(F)cc1)C1COC(=O)[C@@H]1C2c1cc(OC)c(O)c(OC)c1 (some centres undefined)	TGI	13.7 µM
CC(C)C[C@H](NC(=O)[C@H](CC(C)C)NC(=O)[C@@H](Cc1c[nH]c2ccccc12)NC(=O)[C@H](Cc1ccccc1)NC(=O)[C@@H](Cc1c[nH]c2ccccc12)NC(=O)[C@H](CCC(N)=O)NC(=O)[C@H](CCC(N)=O)NC(=O)[C@H]1CCCN1C(=O)[C@@H](N)CCCCN)C(N)=O (H-K[dP]QQ[dW]F[dW]LL-NH2)	TGI	> 100 µM
O=C(O)c1nc(-c2ccc(Cl)c(Cl)c2)nc2ccc(Cl)cc12	TGI	> 100 µM
COc1ccc(-c2oc3c(OC)c(OC)cc(O)c3c(=O)c2OC)cc1	TGI	> 100 µM
O=C1NOC(c2ccc(O)cc2)(c2ccc(O)cc2)c2ccccc21	TGI	> 100 µM
COC(=O)/C=C1/OC(c2ccc(OC)cc2)=C(Cl)C1=O	TGI	40.4 µM
CC1(C)CC2CC(CC(C)(C)C2=O)C1=O	TGI	> 100 µM
CC(C)(C)c1[nH]nc2c1C(c1cc3ccccc3[nH]c1=O)Nc1cc(C(=O)OCc3ccccc3)ccc1N2 (centres undefined)	TGI	> 100 µM
CNC(=O)OCc1c2ccncc2c(C)c2c1[nH]c1ccc(OC)cc12	TGI	> 100 µM
CCc1cccc(C)c1NC(=O)C1=C(C)NC(C)=C(C(=O)Nc2c(C)cccc2CC)C1c1ccc2c(c1)OCO2	TGI	42.6 µM
c1ccc2[nH]c(-c3cc(-c4ccc5c(c4)OCO5)n[nH]3)nc2c1	TGI	21.3 µM
Cc1cnc2[nH]c(-c3ccc4ccccc4c3)cc(=O)c2c1	TGI	> 100 µM
CC(=O)Nc1cccc(N=NN(C)C)c1	TGI	> 100 µM
Nc1nc(-c2ccco2)cc(-c2ccc(CO)o2)n1	TGI	> 100 µM
ON=C(CC(O)(C(F)(F)Cl)C(F)(F)Cl)CC(O)(C(F)(F)Cl)C(F)(F)Cl	TGI	> 10 µM
O=CN1CCN(C(=O)c2ccc(Cl)c(Cl)c2)C1=S	TGI	27.8 µM
CC1(C)[C@@H]2C[C@H]1c1cnc(-c3ccccn3)cc1C2CCCCC[C@@H]1c2cc(-c3ccccn3)ncc2[C@@H]2C[C@H]1C2(C)C (some centres undefined)	TGI	> 44.9 µM
CSc1nc2c(c(=O)[nH]1)N=C(c1ccccc1)CC(c1ccccc1)N2 (centres undefined)	TGI	56.6 µM

---

Parameter GI50: see the listing below.
- Tested on: DU-145 prostate
- protocol text: NCI tumour cell line growth inhibition, 48 h

compound	GI50
Cc1ccc(-c2csc(NC(=O)N3CCN(c4cc5c(cc4F)c(=O)c(C(=O)O)cn5C4CC4)CC3)n2)cc1	0.428 µM
CC(C)(C)c1[nH]nc2c1C(c1cc3ccccc3[nH]c1=O)Nc1cc(C(=O)OCc3ccccc3)ccc1N2 (configuration not stated)	6.04 µM
COc1ccccc1CNCCCN1C(=O)c2ccc3c4c(ccc(c24)C1=O)C(=O)N(CCCN)C3=O	1.38 µM
CC(=O)[O][Sn]([CH2]c1ccccc1)([CH2]c1ccccc1)[CH2]c1ccccc1	> 10 µM
COC(=O)Nc1nc2ccc(Oc3cccc(NC(=O)Nc4cc(C(F)(F)F)ccc4F)c3)cc2[nH]1	> 25 µM
COC(=O)c1cc2ccccc2c2c3c(ccc12)OCO3	109 µM
COc1ccc(CC(=O)c2ccc(O)cc2O)cc1	> 100 µM
Nc1c(C(=O)c2cccc(C#CCO)c2)cnn1-c1ccc(F)cc1	> 25 µM
N#Cc1nc2c(S(=O)(=O)c3ccc(Cl)cc3)c(N)n(CCCN3CCOCC3)c2nc1C#N	3.79 µM
CCc1ccc2c(c1)C(=O)c1c-2n(CCCN=[N+]=[N-])c(=O)c2cc(OC)c(OC)cc12	> 100 µM
CN(C)C(=O)c1cnc2oc3ccc(O)cc3c2c1-c1ccccc1	> 25 µM
CCN1C(=O)N(CC)C2C1NN=c1s/c(=C\c3ccccn3)c(=O)n12 (configuration not stated)	2.4 µM
